measured-target: Tubulin (Homo sapiens) (UniProt P68371+Q9H4B7+P0DPH7+P68366+Q13509+Q71U36+P04350+Q3ZCM7+P07437+P68363+Q9BQE3+Q6PEY2+Q13885+Q9BVA1+Q9BUF5)
method-notes: Induction of tubulin degradation in human HeLa cells measured after 24 hrs by immunoblot analysis
Type: cell-based
measurement-conditions: dose <= 50.0 µM
Activity calls are given as the source filed them. The rule behind the calls is not given here.
Please reply with one of these outcomes: true (1) (active), false (0) (inactive)

The following compounds have reported results that may help.
1) COc1cccc(-c2cc(NCc3ccccc3)nc(N)n2)c1 true (1)
2) COc1cccc(-c2cc(NCc3ccc4[nH]ccc4c3)nc(N)n2)c1 true (1)
3) COc1cccc(-c2cc(N)nc(NCc3ccc4c(c3)OCO4)c2)c1 false (0)
4) CCN(Cc1ccc2c(c1)OCO2)c1cc(-c2cccc(OC)c2)nc(N)n1 true (1)
5) Nc1nc(NCc2ccc3c(c2)OCO3)cc(-c2ccccc2)n1 true (1)

Consider now this further compound.
Called result for `COc1cccc(-c2cc(NCc3ccc4c(c3)OCO4)ncn2)c1` true (1)

###

Tested on: HeLa
method-notes: Antiproliferative activity against human HeLa cells assessed as reduction in cell viability measured after 72 hrs
Type: functional, cell-based
Criterion: IC50 strictly less than 500 nM. Met: met. Not met: not met.

1) COc1cccc(-c2cc(NCc3cc(F)cc(F)c3)nc(N)n2)c1 not met
2) COc1ccc(CNc2cc(-c3cccc(OC)c3)nc(N)n2)cc1 met
3) Nc1nc(NCc2ccc3c(c2)OCO3)cc(-c2ccc3ccccc3c2)n1 not met
4) COc1cccc(-c2cc(NCc3ccc(OC(F)(F)F)cc3)nc(N)n2)c1 met
5) CCOc1ccc(-c2cc(NCc3ccc4c(c3)OCO4)nc(N)n2)cc1 not met

# TODO verify IC50 < 500 nM strictly for this molecule: `COc1cccc(-c2cc(NCc3ccc4c(c3)OCO4)ncn2)c1` not met

# TODO verify IC50 < 500 nM strictly for this molecule: `CCCN(Cc1ccc2c(c1)OCO2)c1cc(-c2cccc(OC)c2)nc(N)n1` met

# TODO verify IC50 < 500 nM strictly for this molecule: `Nc1nc(NCc2ccc3c(c2)OCO3)cc(-c2ccc(Oc3ccccc3)cc2)n1` not met

# TODO verify IC50 < 500 nM strictly for this molecule: `COc1cccc(-c2cc(N)nc(NCc3ccc4c(c3)OCO4)c2)c1` not met

# TODO verify IC50 < 500 nM strictly for this molecule: `Nc1nc(NCc2ccc3c(c2)OCO3)cc(-c2ccc3c(c2)CCN3)n1` met

# TODO verify IC50 < 500 nM strictly for this molecule: `CC(C)c1cccc(-c2cc(NCc3ccc4c(c3)OCO4)nc(N)n2)c1` not met

# TODO verify IC50 < 500 nM strictly for this molecule: `Cc1ccc(-c2cc(NCc3ccc4c(c3)OCO4)nc(N)n2)cc1` met

# TODO verify IC50 < 500 nM strictly for this molecule: `COc1ccc(-c2cc(NCc3ccc4c(c3)OCO4)nc(N)n2)cc1OC` not met

# TODO verify IC50 < 500 nM strictly for this molecule: `COc1cccc(-c2cc(NCc3ccc4ccccc4c3)nc(N)n2)c1` met

# TODO verify IC50 < 500 nM strictly for this molecule: `Cn1cc2c(-c3cc(NCc4ccc5c(c4)OCO5)nc(N)n3)cccc2n1` not met

# TODO verify IC50 < 500 nM strictly for this molecule: `Nc1nc(NCc2ccc3c(c2)OCO3)cc(-c2ccc(F)cc2)n1` not met

# TODO verify IC50 < 500 nM strictly for this molecule: `COc1cccc(-c2cc(NCc3cccc(F)c3)nc(N)n2)c1` met

# TODO verify IC50 < 500 nM strictly for this molecule: `COc1cc(-c2cc(NCc3ccc4c(c3)OCO4)nc(N)n2)cc(OC)c1OC` not met

# TODO verify IC50 < 500 nM strictly for this molecule: `COc1cccc(-c2cc(NCc3ccc(OC)c(OC)c3)nc(N)n2)c1` met

# TODO verify IC50 < 500 nM strictly for this molecule: `Nc1nc(NCc2ccc3c(c2)OCO3)cc(-c2ccccc2)n1` met

# TODO verify IC50 < 500 nM strictly for this molecule: `CC(=O)Nc1cccc(-c2cc(NCc3ccc4c(c3)OCO4)nc(N)n2)c1` not met

###

method-notes: AUC (0 to t) in male Sprague-Dawley rat at 10 mg/kg, iv
Assay type: ADME, organism-based
measurement-conditions: in vivo
recorded-endpoint: AUC(0-t) (ng·h/mL)
State the answer as a number, implicitly in ng·h/mL.

AUC(0-t) reading for `COc1cccc(-c2cc(NCc3ccc4[nH]ccc4c3)nc(N)n2)c1` : 4270

###

method-notes: Tmax in male Sprague-Dawley rat at 10 mg/kg, po
Format: ADME, organism-based
measurement-conditions: in vivo
recorded-endpoint: Tmax (h)
State the answer as a number, implicitly in h.

Tmax reading for `COc1cccc(-c2cc(NCc3ccc4[nH]ccc4c3)nc(N)n2)c1` : 3.67

###

System: HeLa
method-notes: Antiproliferative activity against human HeLa cells assessed as reduction in cell viability measured after 72 hrs
Type: functional, cell-based
recorded-endpoint: IC50 (nM)
State the answer as a number, implicitly in nM.

1. COc1cccc(-c2cc(N3CCc4cc(OC)c(OC)cc4C3)nc(N)n2)c1 230
2. COc1cccc(-c2cc(NCc3ccc(F)cc3F)nc(N)n2)c1 360
3. COc1cccc(-c2cc(N(C)Cc3ccc4c(c3)OCO4)nc(N)n2)c1 20

Field IC50 (system: HeLa) for entry `COc1cccc(-c2cc(NCc3ccc4c(c3)OCO4)nc(N)n2)c1` = 90

Field IC50 (system: HeLa) for entry `COc1cccc(-c2cc(NCc3ccccc3)nc(N)n2)c1` = 440

Field IC50 (system: HeLa) for entry `COc1cccc(-c2cc(NCc3cc(OC)c(OC)c(OC)c3)nc(N)n2)c1` = 330

###

method-notes: Cmax in male Sprague-Dawley rat at 10 mg/kg, po
Assay type: ADME, organism-based
measurement-conditions: in vivo
recorded-endpoint: Cmax (ng/mL)
State the answer as a number, implicitly in ng/mL.

Cmax reading for `COc1cccc(-c2cc(NCc3ccc4[nH]ccc4c3)nc(N)n2)c1` : 77.9

###

This listing pairs molecules with measured pIC50.
Test system: HCT-116
method-notes: cells
measurement-conditions: Homo sapiens, HCT-116, 72 h
Description: Antiproliferative activity against human HCT-116 cells assessed as reduction in cell viability measured after 72 hrs
Scale for pIC50: -log10 of concentration given in mol/L; no unit attached.

1) CCN(Cc1ccc2c(c1)OCO2)c1cc(-c2cccc(OC)c2)nc(N)n1 7.22
2) COc1cc(OC)cc(-c2cc(NCc3ccc4c(c3)OCO4)nc(N)n2)c1 6.48
3) COc1ccc(CNc2cc(-c3cccc(OC)c3)nc(N)n2)cc1 6.28

Pending molecule:
pIC50 reading for `Nc1nc(NCc2ccc3c(c2)OCO3)cc(-c2ccc3c(c2)OCO3)n1` : 6.41

###

Test system: HCT-116
method-notes: cells
measurement-conditions: Homo sapiens, HCT-116, 72 h
pIC50: −log10 of the molar value.
This listing pairs compounds with measured pIC50.

Use these answered entries as a reference point.
1. CC(C)(C)c1ccc(-c2cc(NCc3ccc4c(c3)OCO4)nc(N)n2)cc1 < 5.70
2. CC(=O)c1cccc(-c2cc(NCc3ccc4c(c3)OCO4)nc(N)n2)c1 < 5.70

Pending compound:
pIC50 reading for `Nc1nc(NCc2ccc3c(c2)OCO3)cc(-c2ccc(F)cc2)n1` : < 5.70

###

Test system: HCT-116
method-notes: cells
measurement-conditions: Homo sapiens, HCT-116, 72 h
recorded-endpoint: IC50 (nM)
State the answer as a number, implicitly in nM.

Use these answered entries as a reference point.
1) COc1cccc(-c2cc(NCc3ccc4[nH]ccc4c3)nc(N)n2)c1 30
2) Nc1nc(NCc2ccc3c(c2)OCO3)cc(-c2cccc(OCc3ccccc3)c2)n1 1050

Field IC50 (system: HCT-116) for entry `COc1ccc(-c2cc(NCc3ccc4c(c3)OCO4)nc(N)n2)cn1` = 820

Field IC50 (system: HCT-116) for entry `COc1cccc(-c2cc(NCc3ccc4ccccc4c3)nc(N)n2)c1` = 130

Field IC50 (system: HCT-116) for entry `COc1cccc(-c2cc(NCc3cccc(F)c3)nc(N)n2)c1` = 160

Field IC50 (system: HCT-116) for entry `COc1cccc(-c2cc(NCc3cc(F)cc(F)c3)nc(N)n2)c1` = 450

###

System: HCT-116
method-notes: cells
measurement-conditions: Homo sapiens, HCT-116, 72 h
pIC50: −log10 of the molar value.
recorded-endpoint: pIC50

Use these answered entries as a reference point.
1. CCOc1ccc(-c2cc(NCc3ccc4c(c3)OCO4)nc(N)n2)cc1 < 5.70
2. Nc1nc(NCc2ccc3c(c2)OCO3)cc(-c2ccc(-c3ccccc3)cc2)n1 < 5.70
3. COc1ccc(-c2cc(NCc3ccc4c(c3)OCO4)nc(N)n2)cc1OC < 5.70

pIC50 reading for `Nc1nc(NCc2ccc3c(c2)OCO3)cc(-c2cccc(-c3ccccc3)c2)n1` : < 5.70

pIC50 reading for `CC(C)c1cccc(-c2cc(NCc3ccc4c(c3)OCO4)nc(N)n2)c1` : < 5.70

pIC50 reading for `COc1cccc(-c2cc(N3CCc4cc(OC)c(OC)cc4C3)nc(N)n2)c1` : 6.68

pIC50 reading for `CC1(C)c2ccccc2-c2ccc(-c3cc(NCc4ccc5c(c4)OCO5)nc(N)n3)cc21` : < 5.70

pIC50 reading for `COc1cccc(-c2cc(NCc3ccc(OC(F)(F)F)cc3)nc(N)n2)c1` : 6.59

pIC50 reading for `COc1cccc(-c2cc(N)nc(NCc3ccc4c(c3)OCO4)c2)c1` : 4.43
